- experimentalTarget: recombinant human MAO-A (Homo sapiens)
- Construct: purchased BD Biosciences (Bedford, MA, USA); host or cells: baculovirus (Autographa californica) infected insect cells (BTI-TN-5B1-4)
- experimentalDetails: Fluorometric kynuramine deamination assay, MAO-A inhibition (IC50)
- Format: biochemical
experimentalReadout: pIC50
To interpret pIC50, take it as minus log10 of a concentration measured in moles per litre.

Entry COc1cc(O)c2c(c1)O[C@H](c1ccc(O)cc1)CC2=O [Sakuranetin, 3, naringenin 7-methyl ether] — recorded pIC50 = 4.34

---

- experimentalTarget: recombinant human MAO-B (Homo sapiens)
- Sequence (P27338 whole entry): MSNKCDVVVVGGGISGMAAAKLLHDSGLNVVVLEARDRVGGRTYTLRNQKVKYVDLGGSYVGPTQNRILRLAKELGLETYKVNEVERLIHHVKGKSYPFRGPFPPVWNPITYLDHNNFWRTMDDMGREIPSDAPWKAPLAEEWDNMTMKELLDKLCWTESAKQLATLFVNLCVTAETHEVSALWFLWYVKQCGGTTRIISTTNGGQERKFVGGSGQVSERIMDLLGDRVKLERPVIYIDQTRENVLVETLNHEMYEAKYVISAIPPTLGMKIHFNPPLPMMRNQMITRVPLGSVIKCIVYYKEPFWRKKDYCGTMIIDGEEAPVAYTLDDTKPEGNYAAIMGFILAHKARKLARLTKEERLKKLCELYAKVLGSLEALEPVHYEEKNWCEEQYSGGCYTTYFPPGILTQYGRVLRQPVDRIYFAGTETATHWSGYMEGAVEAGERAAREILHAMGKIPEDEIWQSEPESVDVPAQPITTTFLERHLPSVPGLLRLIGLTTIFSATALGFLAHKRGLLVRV
- experimentalDetails: Fluorometric kynuramine deamination assay, MAO-B inhibition (IC50)
- protocolConditions: kynuramine 50 μM; mean ± SD of triplicate; read-out: Monoamine oxidase-B IC50
pIC50: −log10 of the molar value.
Each entry gets f if its pIC50 stays under 5, and t if its pIC50 is 5 or above.

Would you please look over these solved cases?
COc1ccc([C@@H]2CC(=O)c3c(O)cc(OC)cc3O2)cc1	f
O[C@H](CCc1ccccc1)C[C@@H](O)CCc1ccccc1	f
COc1cc(O)c2c(c1)O[C@H](c1ccccc1)CC2=O	f

Query: Say whether COc1cc(/C=C/c2ccccc2)oc(=O)c1 shows pIC50 of 5 or more.
Result: t

Query: Confirm if pIC50 reported for the compound COc1cc(O)c2c(c1)O[C@H](c1ccc(O)cc1)CC2=O is 5 or above.
Result: f

---

- experimentalTarget: recombinant human MAO-A (Homo sapiens, UniProt P21397)
- Construct: purchased BD Biosciences (Bedford, MA, USA); host or cells: baculovirus (Autographa californica) infected insect cells (BTI-TN-5B1-4)
- Sequence (P21397 1-527): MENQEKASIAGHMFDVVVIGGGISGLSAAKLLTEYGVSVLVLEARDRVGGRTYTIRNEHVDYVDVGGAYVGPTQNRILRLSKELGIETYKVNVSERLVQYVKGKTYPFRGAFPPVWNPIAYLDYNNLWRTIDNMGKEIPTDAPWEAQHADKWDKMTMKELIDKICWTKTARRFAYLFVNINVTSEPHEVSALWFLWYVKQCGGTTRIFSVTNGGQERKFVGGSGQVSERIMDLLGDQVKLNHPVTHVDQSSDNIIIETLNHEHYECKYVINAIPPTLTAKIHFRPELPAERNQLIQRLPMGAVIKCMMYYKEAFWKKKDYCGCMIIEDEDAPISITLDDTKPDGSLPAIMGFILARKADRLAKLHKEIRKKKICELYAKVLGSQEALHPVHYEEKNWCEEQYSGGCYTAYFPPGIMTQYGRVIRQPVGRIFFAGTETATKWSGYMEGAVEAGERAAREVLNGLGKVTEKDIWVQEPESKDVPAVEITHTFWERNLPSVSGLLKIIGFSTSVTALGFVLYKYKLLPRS
- experimentalDetails: Fluorometric kynuramine deamination assay, MAO-A inhibition (IC50)
- Assay type: biochemical
- protocolConditions: kynuramine 80 μM; mean ± SD of triplicate; read-out: Monoamine oxidase-A IC50
Documented IC50 across a set of compounds
Use µM as the unit, but write only the number.

Worked examples follow.
COc1ccc([C@@H]2CC(=O)c3c(O)cc(OC)cc3O2)cc1 [4′-Methyl ether sakuranetin, 2, naringenin 7,4′-dimethyl ether]	31.4
COc1cc(O)c2c(c1)O[C@H](c1ccccc1)CC2=O [Pinostrobin, 1, pinostrobin]	23.9
COc1cc(/C=C/c2ccccc2)oc(=O)c1 [Desmethoxyyangonin, 6, desmethoxyyangonin]	1.85

Note to self: IC50 recorded for COc1cc(O)c(C(=O)/C=C/c2ccccc2)c(O)c1 [Pinostrobin chalcone, 4, 2′,6′-dihydroxy-4′-methoxychalcone] was 6.33
